experiment-summary: AUC (0 to infinity) in BALB/c mouse at 1 mg/kg, iv measured during 0.083 to 24 hrs post dose by LC-MS/MS analysis
Format: ADME, organism-based
Design: route intravenous, time lower 0.083 hrs, dose 1 mg/kg, time upper 24 hrs
details: in vivo
measured-parameter: AUC(0-inf) (ng·h/mL)
Answer format: numeric, ng·h/mL implied, no suffix.

Documented AUC(0-inf) of `CC(C)(CO)NC(=O)c1cc(C(C)(C)C)n(-c2ccc(C(F)(F)F)cn2)n1` : 422

* * *

experiment-summary: in vitro
details: human, liver microsomes
Description: Half life in human liver microsomes at 1 uM in presence of NADPH by LC-MS/MS analysis
# binarize half-life at 1 µM: threshold 20 min inclusive, high side true (1), low side false (0)

Please check the record `CC(C)(CO)NC(=O)c1cc(C(C)(C)C)n(-c2ccc(C(F)(F)F)cn2)n1` and state if its half-life at 1 µM is at or above 20 min.
true (1)

Please check the record `C[C@]12CC[C@H]3[C@@H](CCC4=CC(=O)CC[C@@]43C)[C@@H]1CC[C@@H]2O` and state if its half-life at 1 µM is at or above 20 min.
false (0)

Please check the record `CCCCCn1nc(C(=O)NC(C)(C)CO)c(N)c1C(C)(C)C` and state if its half-life at 1 µM is at or above 20 min.
false (0)

Please check the record `CCCCCn1nc(C(=O)NC(C)(C)CO)cc1C(C)(C)C` and state if its half-life at 1 µM is at or above 20 min.
true (1)

Please check the record `CCCCCn1nc(C(=O)N[C@@H](C(=O)OC)C(C)C)cc1C(C)(C)C` and state if its half-life at 1 µM is at or above 20 min.
false (0)

Please check the record `CCCCCn1nc(C(=O)NC(C)(C)CO)cc1-c1ccc(F)cc1F` and state if its half-life at 1 µM is at or above 20 min.
true (1)
